biological target: GSK3α (GST-full length GSK3α) (Homo sapiens (Human), UniProt P49840); experiment: GSK3α TR-FRET kinase assay; type: biochemical; details: 1 nM GSK3α, 4 μM ATP, 30 minute preincubation, Table 16; read-out: GSK3-A TR-FRET BIOCHEMICAL (TR-FRET)
Sequence (P49840 whole entry): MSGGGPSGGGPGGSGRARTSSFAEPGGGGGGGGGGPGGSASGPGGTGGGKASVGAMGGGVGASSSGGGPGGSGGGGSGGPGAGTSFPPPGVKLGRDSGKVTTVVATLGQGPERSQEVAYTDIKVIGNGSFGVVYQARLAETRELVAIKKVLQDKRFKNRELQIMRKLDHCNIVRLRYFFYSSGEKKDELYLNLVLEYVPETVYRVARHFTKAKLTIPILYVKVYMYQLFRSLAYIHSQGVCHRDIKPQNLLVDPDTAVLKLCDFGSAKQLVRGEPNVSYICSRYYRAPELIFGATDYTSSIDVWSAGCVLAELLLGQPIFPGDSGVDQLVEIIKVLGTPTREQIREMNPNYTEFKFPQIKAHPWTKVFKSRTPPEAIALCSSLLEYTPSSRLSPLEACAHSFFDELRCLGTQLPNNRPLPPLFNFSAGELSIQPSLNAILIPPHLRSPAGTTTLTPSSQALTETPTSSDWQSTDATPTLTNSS
Each record here notes measured IC50.

Worked cases, answers included:
| molecule | tgt | IC50 |
| --- | --- | --- |
| CC1(C)CC(=O)C2=C(C1)Nc1n[nH]cc1C21CN(S(=O)(=O)C2CC2)C1 [Compound 913259] | GSK3α (GST-full length GSK3α) (Homo sapiens (Human), UniProt P49840) | ≤ 0.1 µM |
| CC1(C)CC(=O)C2=C(C1)Nc1n[nH]cc1C21CCN(S(=O)(=O)c2cccnc2)CC1 [Compound 947613] | GSK3α (GST-full length GSK3α) (Homo sapiens (Human), UniProt P49840) | ≤ 0.1 µM |
| CC[C@]1(c2cccc(-c3ccnc4ccccc34)c2)C2=C(CC(C)(C)CC2=O)Nc2n[nH]cc21 [Compound 944031] | GSK3α (GST-full length GSK3α) (Homo sapiens (Human), UniProt P49840) | ≤ 0.1 µM |

Asked: What value of IC50 has been recorded for this entry: CC[C@]1(c2cccc(-c3ccncc3OC)c2)C2=C(CC(C)(C)CC2=O)Nc2n[nH]cc21 [Compound 945471]
Given back: 1 to 5 µM

Asked: What value of IC50 has been recorded for this entry: CCC1(c2cccc(C(F)(F)F)c2)C2=C(Nc3n[nH]cc31)C(C)(C)NC2=O (stereo not shown) [Compound 912104]
Given back: ≤ 0.1 µM

Asked: What value of IC50 has been recorded for this entry: CCC1(c2cccc(-c3c(F)cncc3OC)c2)C2=C(Nc3n[nH]cc31)C(F)C(C)(C)CC2=O (stereo not shown) [Compound 948548]
Given back: ≤ 0.1 µM

Asked: What value of IC50 has been recorded for this entry: Cc1cc(-c2cccc3c2CCC[C@@]32C3=C(CC(C)(C)CC3=O)Nc3n[nH]cc32)ccn1 [Compound 945550]
Given back: 0.1 to 1 µM

###

molecular target: GSK3b (GST-full length GSK3b) (Homo sapiens (Human)); experiment: GSK3b TR-FRET kinase assay; assay type: biochemical; settings: 1 nM GSK3b, 2 μM ATP, 30 minute preincubation; read-out: GSK3-B TR-FRET BIOCHEMICAL (TR-FRET); IC50
Sequence (P49841 whole entry): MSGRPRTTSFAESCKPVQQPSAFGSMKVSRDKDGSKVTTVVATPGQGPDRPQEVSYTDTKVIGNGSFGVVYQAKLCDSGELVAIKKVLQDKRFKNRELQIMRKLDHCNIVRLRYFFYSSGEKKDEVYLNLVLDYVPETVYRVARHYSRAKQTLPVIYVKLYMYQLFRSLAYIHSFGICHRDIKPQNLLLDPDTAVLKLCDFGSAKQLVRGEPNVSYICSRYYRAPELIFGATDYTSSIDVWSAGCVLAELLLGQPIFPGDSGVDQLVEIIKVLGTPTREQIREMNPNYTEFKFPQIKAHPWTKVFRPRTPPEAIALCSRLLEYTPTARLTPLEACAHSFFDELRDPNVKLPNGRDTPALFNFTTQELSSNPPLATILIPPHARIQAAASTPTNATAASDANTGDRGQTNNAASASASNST
pIC50: −log10 of the molar value.
reportedProperty: pIC50

| molecule | pIC50 |
| --- | --- |
| Cc1cccc(C(=O)N2CC3(C2)CC2(CO3)C3=C(CC(C)(C)CC3=O)Nc3n[nH]cc32)c1C (stereo not shown) | 6.00 to 7.00 |
| CC1(C)CC(=O)C2=C(C1)Nc1n[nH]cc1C21COC2(CN(C(=O)C3(F)CCCC3)C2)C1 (stereo not shown) | ≥ 7.00 |
| CCC1(c2cccc(-c3cn(C)nc3C)c2)C2=C(CC(C)(C)NC2=O)Nc2n[nH]cc21 (stereo not shown) | ≥ 7.00 |
| CC[C@]1(c2cccc(-c3ccnc4c3CCCC4)c2)C2=C(CN(Cc3ccccc3)C2=O)Nc2n[nH]cc21 | < 5.30 |
| CC[C@]1(c2cccc(S(=O)(=O)C3CC3)c2)C2=C(CC(C)(C)NC2=O)Nc2n[nH]cc21 | ≥ 7.00 |
| CC(=O)N1CC[C@@]2(C1)C[C@]1(CO2)C2=C(CC(C)(C)CC2=O)Nc2n[nH]cc21 | 5.30 to 6.00 |

Turning to the following molecule.
Asked: What value of pIC50 has been recorded for this entry: CC1(C)CC(=O)C2=C(C1)Nc1n[nH]cc1C21COC2(CN(C(=O)C(C)(C)F)C2)C1 (stereo not shown)
Given back: ≥ 7.00

###

target: GSK3α (GST-full length GSK3α) (Homo sapiens (Human), UniProt P49840); assay: GSK3α TR-FRET kinase assay; format: biochemical; details: 1 nM GSK3α, 4 μM ATP, 30 minute preincubation; geometric mean; read-out: GSK3-A TR-FRET BIOCHEMICAL (TR-FRET); GMean; IC50
reportedProperty: IC50

Asked: What value of IC50 has been recorded for this entry: `CC[C@@]1(c2ccccc2)C2=C(Nc3n[nH]cc31)[C@H](C)C[C@@H](C)C2=O`
Given back: 1 to 5 µM

Asked: What value of IC50 has been recorded for this entry: CC1(C)CC(=O)C2=C(C1)Nc1n[nH]c(CCC(F)(F)F)c1C2(C)c1ccccc1 (stereo not shown)
Given back: > 5 µM

Asked: What value of IC50 has been recorded for this entry: CCC1(c2cccc(-c3cnn(C)c3)c2)C2=C(CC(C)(C)CC2=O)Nc2n[nH]c(C(F)(F)F)c21 (stereo not shown) [Compound 811567]
Given back: 0.1 to 1 µM

Asked: What value of IC50 has been recorded for this entry: `CC[C@]1(c2cccc(-c3cnn(C)c3C)c2)C2=C(CC(C)(C)NC2=O)Nc2n[nH]c(C(F)(F)F)c21`
Given back: ≤ 0.1 µM

###

Target: GSK3b (GST-full length GSK3b) (Homo sapiens (Human))
Test: GSK3b TR-FRET kinase assay
Assay type: biochemical
Details: read-out: GSK3-B (TR-FRET 1 mM ATP); GMean; IC50; 1 mM ATP; geometric mean
Description: TR-FRET Assay: The assay was performed in a white, 384 well, low volume, flat bottom plate (Grenier). After a 30 minute preincubation in assay buffer with the indicated concentration of compound, the kinase activity was initiated by the addition of the substrates. […] After 60 min at room temperature the plate was read on Envision plate reader using Ex: 340 nm, Em: 615 nm and […]. The normalized 665/615 Signal ratio versus log compound concentration was analyzed by XLFIT to yield IC50 values.
pIC50: −log10 of the molar value.
Each record here notes measured pIC50.

| compound | pIC50 |
| --- | --- |
| CCC1(c2cccc(S(=O)(=O)C(C)C)c2)C2=C(CC(C)(C)CC2=O)Nc2n[nH]cc21 (stereo not shown) | 6.00 to 7.00 |
| CC[C@]1(c2cccc(-c3cnn4c3CCCC4)c2)C2=C(CC(C)(C)NC2=O)Nc2n[nH]cc21 | < 5.30 |
| CCC1(c2cccc(C(C)C)c2)C2=C(CC(C)(C)NC2=O)Nc2n[nH]cc21 (stereo not shown) | < 5.30 |
| CCC1(c2cccc(C(F)(F)F)c2)C2=C(CC(C)(C)CC2=O)Nc2n[nH]c(Br)c21 (stereo not shown) | 6.00 to 7.00 |
| C[S+]([O-])c1cccc(C2(C)C3=C(CC(C)(C)CC3=O)Nc3n[nH]c(CC(C)(C)C)c32)c1 (stereo not shown) [Compound 126193] | < 5.30 |
| CCC1(c2cccc(-c3c(F)cncc3OC)c2)C2=C(CC(C)(C)CC2=O)Nc2n[nH]cc21 (stereo not shown) | 6.00 to 7.00 |

Turning to the following compound.
Asked: What value of pIC50 has been recorded for this entry: CCC1(c2cccc(-c3cn[nH]c3)c2)C2=C(CC(C)(C)CC2=O)Nc2n[nH]c(C)c21 (stereo not shown)
Given back: 6.00 to 7.00

###

Each record here notes measured MDCK permeability (MDR1-MDCK); Mean; Papp (A − B).
test system: MDR1-MDCK cell monolayers; assay: MDR1/MDCK assay (blood-brain barrier penetration potential); format: in vitro ADME; details: 5 μM, pH 7.4, 120 minutes, A to B

Worked cases, answers included:
| compound | result |
| --- | --- |
| CN(C)S(=O)(=O)c1cccc(C2(C)C3=C(CC(C)(C)CC3=O)Nc3n[nH]c(CC(C)(C)C)c32)c1 (stereo not drawn) [Compound 126012] | 0.47 10^−6 cm/s |
| CN1CC2(C3=C(CC(C)(C)CC3=O)Nc3n[nH]c(C4CC(F)(F)C4)c32)c2ccccc21 (stereo not drawn) [Compound 119048] | 1.65 10^−6 cm/s |
| Cn1cc(-c2cccc(C3(C)C4=C(CC(C)(C)CC4=O)Nc4n[nH]c(CC(C)(C)C)c43)c2)cn1 (stereo not drawn) [Compound 126393] | 0.59 10^−6 cm/s |
| Cn1cncc1-c1cccc(C2(C)C3=C(CC(C)(C)CC3=O)Nc3n[nH]c(CC(C)(C)C)c32)c1 (stereo not drawn) [Compound 126014] | 0.17 10^−6 cm/s |
| C[S+]([O-])c1cccc(C2(C)C3=C(CC(C)(C)CC3=O)Nc3n[nH]c(CC(C)(C)C)c32)c1 (stereo not drawn) [Compound 126190] | 0.08 10^−6 cm/s |

Asked: What value of MDCK permeability (MDR1-MDCK); Mean; Papp (A − B) has been recorded for this entry: CC(C)(C)Cc1[nH]nc2c1C(C)(c1cccc(S(=O)(=O)C(F)(F)F)c1)C1=C(CC(C)(C)CC1=O)N2 (stereo not drawn) [Compound 126395]
Given back: 6.48 10^−6 cm/s

Asked: What value of MDCK permeability (MDR1-MDCK); Mean; Papp (A − B) has been recorded for this entry: CN1CC2(C3=C(CC(C)(C)CC3=O)Nc3n[nH]c(CC(C)(C)C)c32)c2ccccc21 (stereo not drawn) [Compound 125978]
Given back: 10.8 10^−6 cm/s

Asked: What value of MDCK permeability (MDR1-MDCK); Mean; Papp (A − B) has been recorded for this entry: CC(C)(C)Cc1[nH]nc2c1C(C)(c1cccc(N3CCOCC3)c1)C1=C(CC(C)(C)CC1=O)N2 (stereo not drawn) [Compound 126400]
Given back: 0.41 10^−6 cm/s

Asked: What value of MDCK permeability (MDR1-MDCK); Mean; Papp (A − B) has been recorded for this entry: CC(C)(C)Cc1[nH]nc2c1C(C)(c1cc(S(C)(=O)=O)ccc1F)C1=C(CC(C)(C)CC1=O)N2 (stereo not drawn) [Compound 125976]
Given back: 0.2 10^−6 cm/s
